molecular target: 5'-methylthioadenosine/S-adenosylhomocysteine nucleosidase (Klebsiella pneumoniae (strain 342), UniProt B5Y1L0); test: Enzyme Activity Assay; conditions: pH 7.5; 25 °C
Sequence (B5Y1L0 whole entry): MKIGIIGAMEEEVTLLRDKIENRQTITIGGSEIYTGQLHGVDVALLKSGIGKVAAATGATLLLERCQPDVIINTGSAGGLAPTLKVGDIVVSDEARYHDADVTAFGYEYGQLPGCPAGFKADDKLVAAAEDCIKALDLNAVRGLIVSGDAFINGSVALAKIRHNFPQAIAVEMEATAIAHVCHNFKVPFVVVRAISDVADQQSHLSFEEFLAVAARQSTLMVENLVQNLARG
Measured pKd of individual entries
Expect pKd as a plain number equal to -log10 of the molar concentration.

Nc1ncnc2c(C3NC(CSc4ccc(Cl)cc4)C(O)C3O)c[nH]c12 (stereo not drawn)
8.39
CCSCC1NC(c2c[nH]c3c(N)ncnc23)C(O)C1O (stereo not drawn)
7.89
Nc1ncnc2c(CN3CC(O)C(CSCc4ccccc4)C3)c[nH]c12 (stereo not drawn)
8.72

Request: Which pKd is reported for this compound? Nc1ncnc2c(CN3CC(O)C(CSc4ccc(Cl)cc4)C3)c[nH]c12 (stereo not drawn)
Result: 9.30

Request: One more compound: `CCSC[C@H]1CN(Cc2c[nH]c3c(N)ncnc23)C[C@@H]1O`
Result: 8.66

Request: One more compound: CSCC1NC(c2c[nH]c3c(N)ncnc23)C(O)C1O (stereo not drawn)
Result: 7.35

Request: One more compound: Nc1ncnc2c(C3NC(CSCc4ccccc4)C(O)C3O)c[nH]c12 (stereo not drawn)
Result: 7.89

Request: One more compound: `CSC[C@H]1CN(Cc2c[nH]c3c(N)ncnc23)C[C@@H]1O`
Result: 9.11

###

biological target: S-methyl-5'-thioadenosine phosphorylase (Homo sapiens)
Sequence (Q13126 whole entry): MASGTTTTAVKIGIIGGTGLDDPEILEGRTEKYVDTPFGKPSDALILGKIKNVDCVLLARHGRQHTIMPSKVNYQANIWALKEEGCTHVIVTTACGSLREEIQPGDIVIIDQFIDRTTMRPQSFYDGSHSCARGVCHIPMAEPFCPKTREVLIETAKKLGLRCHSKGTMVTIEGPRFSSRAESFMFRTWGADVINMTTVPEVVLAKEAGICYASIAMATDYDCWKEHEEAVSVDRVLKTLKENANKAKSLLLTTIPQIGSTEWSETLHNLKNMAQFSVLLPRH
Measured Kd of individual entries
Numeric only. Scale: nM

Nc1ncnc2c(C3NC(CSCc4ccccc4)C(O)C3O)c[nH]c12 (stereo unspecified)
26
CCSCC1NC(c2c[nH]c3c(N)ncnc23)C(O)C1O (stereo unspecified)
0.266
CSCC1NC(c2c[nH]c3c(N)ncnc23)C(O)C1O (stereo unspecified)
1
Nc1ncnc2c(CN3CC(O)C(CSc4ccc(Cl)cc4)C3)c[nH]c12 (stereo unspecified) [DADMe-ImmA-p-ClPh]
0.01
Nc1ncnc2c(CN3CC(O)C(CSCc4ccccc4)C3)c[nH]c12 (stereo unspecified)
0.7

Continue with the next compound.
Request: Which Kd is reported for this compound? Nc1ncnc2c(C3NC(CSc4ccc(Cl)cc4)C(O)C3O)c[nH]c12 (stereo unspecified)
Result: 0.166

###

Target: Adenosylhomocysteine nucleosidase (Streptococcus pneumoniae (strain ATCC BAA-255 / R6))
Sequence (Q8DQ16 whole entry): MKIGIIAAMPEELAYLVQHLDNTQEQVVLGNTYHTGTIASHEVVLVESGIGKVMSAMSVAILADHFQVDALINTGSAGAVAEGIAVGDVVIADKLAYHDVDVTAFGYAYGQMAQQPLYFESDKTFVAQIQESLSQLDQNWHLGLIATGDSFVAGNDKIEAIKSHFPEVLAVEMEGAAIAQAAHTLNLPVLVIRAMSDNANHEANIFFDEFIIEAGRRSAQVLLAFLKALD
Experiment: Enzyme Activity Assay
Details: pH 7.5; 25 °C
Sorting guide: entries reporting Kd beneath 40 nM go in the condition met pile, the rest go in the condition not met pile.

Worked examples, 2 compounds total:
Nc1ncnc2c(C3NC(CSCc4ccccc4)C(O)C3O)c[nH]c12 (stereo not drawn)
condition not met
CSC[C@H]1CN(Cc2c[nH]c3c(N)ncnc23)C[C@@H]1O
condition met

Request: Does the reported Kd of Nc1ncnc2c(CN3CC(O)C(CSc4ccc(Cl)cc4)C3)c[nH]c12 (stereo not drawn) stay below 40 nM?
Result: condition met

Request: One more compound: `CCSC[C@H]1CN(Cc2c[nH]c3c(N)ncnc23)C[C@@H]1O`
Result: condition met

Request: One more compound: CSCC1NC(c2c[nH]c3c(N)ncnc23)C(O)C1O (stereo not drawn)
Result: condition not met

Request: One more compound: Nc1ncnc2c(C3NC(CSc4ccc(Cl)cc4)C(O)C3O)c[nH]c12 (stereo not drawn)
Result: condition not met

Request: One more compound: Nc1ncnc2c(CN3CC(O)C(CSCc4ccccc4)C3)c[nH]c12 (stereo not drawn)
Result: condition met

###

biological target: 5'-methylthioadenosine/S-adenosylhomocysteine nucleosidase (Escherichia coli (strain K12)); assay: Enzyme Activity Assay; conditions: pH 7.5; 25 °C
Sequence (P0AF12 whole entry): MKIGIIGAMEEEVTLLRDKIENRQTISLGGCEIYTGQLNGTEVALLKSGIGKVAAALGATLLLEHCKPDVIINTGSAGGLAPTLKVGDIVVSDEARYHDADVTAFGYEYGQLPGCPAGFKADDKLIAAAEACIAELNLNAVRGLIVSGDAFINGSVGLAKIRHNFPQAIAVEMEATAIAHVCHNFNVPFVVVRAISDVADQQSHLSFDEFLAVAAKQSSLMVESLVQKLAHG
metric: pKd
Expect pKd as a plain number equal to -log10 of the molar concentration.

CSCC1NC(c2c[nH]c3c(N)ncnc23)C(O)C1O (centres undefined)
10.11
Nc1ncnc2c(C3NC(CSCc4ccccc4)C(O)C3O)c[nH]c12 (centres undefined)
10.57
CCSCC1NC(c2c[nH]c3c(N)ncnc23)C(O)C1O (centres undefined)
10.92

Continue with the next molecule.
Request: Lab request: please report pKd under test system 5'-methylthioadenosine/S-adenosylhomocysteine nucleosidase (Escherichia coli (strain K12)) for Nc1ncnc2c(C3NC(CSc4ccc(Cl)cc4)C(O)C3O)c[nH]c12 (centres undefined)
Result: 11.70

###

Biological target: 5'-methylthioadenosine/S-adenosylhomocysteine nucleosidase (Neisseria meningitidis (strain alpha14), UniProt C6S634)
Sequence (C6S634 whole entry): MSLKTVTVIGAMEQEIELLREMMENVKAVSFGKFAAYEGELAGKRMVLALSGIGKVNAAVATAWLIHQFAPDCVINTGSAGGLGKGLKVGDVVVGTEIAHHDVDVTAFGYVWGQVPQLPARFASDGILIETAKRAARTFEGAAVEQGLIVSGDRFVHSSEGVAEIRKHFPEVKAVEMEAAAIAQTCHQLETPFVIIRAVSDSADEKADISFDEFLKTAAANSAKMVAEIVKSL
Assay: Enzyme Activity Assay
Conditions: pH 7.5; 25 °C
Excerpt: Enzyme activity assay using various bacterial species of 5'-Methylthioadenosine nucleosidases (MTANs) excepted for MTAP, for human MTAP.
metric: pKd
Expect pKd as a plain number equal to -log10 of the molar concentration.

Worked cases, answers included:
Nc1ncnc2c(CN3CC(O)C(CSCc4ccccc4)C3)c[nH]c12 (stereo not drawn)
10.62
Nc1ncnc2c(C3NC(CSCc4ccccc4)C(O)C3O)c[nH]c12 (stereo not drawn)
9.77
CCSCC1NC(c2c[nH]c3c(N)ncnc23)C(O)C1O (stereo not drawn)
9.92
CCSC[C@H]1CN(Cc2c[nH]c3c(N)ncnc23)C[C@@H]1O [DADMe-ImmA-Et]
10.34
CSC[C@H]1CN(Cc2c[nH]c3c(N)ncnc23)C[C@@H]1O [DADMe-ImmA-Me]
9.85
Nc1ncnc2c(C3NC(CSc4ccc(Cl)cc4)C(O)C3O)c[nH]c12 (stereo not drawn)
10.20
CSCC1NC(c2c[nH]c3c(N)ncnc23)C(O)C1O (stereo not drawn)
9.44

Continue with the next molecule.
Request: Which pKd is reported for this molecule? Nc1ncnc2c(CN3CC(O)C(CSc4ccc(Cl)cc4)C3)c[nH]c12 (stereo not drawn) [DADMe-ImmA-p-ClPh]
Result: 10.68

###

target: Aminodeoxyfutalosine nucleosidase (Helicobacter pylori (strain ATCC 700392 / 26695)); assay: Enzyme Activity Assay; details: pH 7.5; 25 °C
Sequence (O24915 whole entry): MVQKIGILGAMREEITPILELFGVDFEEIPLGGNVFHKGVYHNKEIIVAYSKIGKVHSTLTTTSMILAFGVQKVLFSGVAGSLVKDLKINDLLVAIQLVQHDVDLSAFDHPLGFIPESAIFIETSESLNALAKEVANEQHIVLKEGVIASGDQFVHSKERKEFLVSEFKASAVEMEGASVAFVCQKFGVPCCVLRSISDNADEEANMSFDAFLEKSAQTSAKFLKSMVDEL
Sorting guide: entries reporting Kd beneath 3 nM go in the satisfied pile, the rest go in the not satisfied pile.

Worked examples, 4 molecules total:
Nc1ncnc2c(CN3CC(O)C(CSc4ccc(Cl)cc4)C3)c[nH]c12 (stereo not drawn)
satisfied
CCSC[C@H]1CN(Cc2c[nH]c3c(N)ncnc23)C[C@@H]1O
satisfied
CSCC1NC(c2c[nH]c3c(N)ncnc23)C(O)C1O (stereo not drawn)
satisfied
CSC[C@H]1CN(Cc2c[nH]c3c(N)ncnc23)C[C@@H]1O
satisfied

Request: Does the reported Kd of Nc1ncnc2c(CN3CC(O)C(CSCc4ccccc4)C3)c[nH]c12 (stereo not drawn) stay below 3 nM?
Result: not satisfied

Request: One more molecule: Nc1ncnc2c(C3NC(CSCc4ccccc4)C(O)C3O)c[nH]c12 (stereo not drawn)
Result: not satisfied

Request: One more molecule: CCSCC1NC(c2c[nH]c3c(N)ncnc23)C(O)C1O (stereo not drawn)
Result: not satisfied

Request: One more molecule: Nc1ncnc2c(C3NC(CSc4ccc(Cl)cc4)C(O)C3O)c[nH]c12 (stereo not drawn)
Result: not satisfied

###

target: 5'-methylthioadenosine/S-adenosylhomocysteine nucleosidase (Staphylococcus aureus (strain COL)); assay: Enzyme Activity Assay; settings: pH 7.5; 25 °C
Sequence (Q5HFG2 whole entry): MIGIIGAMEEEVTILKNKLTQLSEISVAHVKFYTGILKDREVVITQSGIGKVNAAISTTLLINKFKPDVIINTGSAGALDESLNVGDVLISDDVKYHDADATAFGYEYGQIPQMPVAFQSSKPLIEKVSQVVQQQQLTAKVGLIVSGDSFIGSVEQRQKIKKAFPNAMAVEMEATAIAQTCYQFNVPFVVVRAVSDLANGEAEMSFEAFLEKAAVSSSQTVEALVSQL
Measured pKd of individual entries
Expect pKd as a plain number equal to -log10 of the molar concentration.

Worked cases, answers included:
Nc1ncnc2c(CN3CC(O)C(CSCc4ccccc4)C3)c[nH]c12 (stereo not drawn)
9.08
Nc1ncnc2c(C3NC(CSCc4ccccc4)C(O)C3O)c[nH]c12 (stereo not drawn)
7.92
CCSCC1NC(c2c[nH]c3c(N)ncnc23)C(O)C1O (stereo not drawn)
7.92
CCSC[C@H]1CN(Cc2c[nH]c3c(N)ncnc23)C[C@@H]1O [DADMe-ImmA-Et]
8.89
Nc1ncnc2c(C3NC(CSc4ccc(Cl)cc4)C(O)C3O)c[nH]c12 (stereo not drawn)
7.28

Request: Which pKd is reported for this molecule? Nc1ncnc2c(CN3CC(O)C(CSc4ccc(Cl)cc4)C3)c[nH]c12 (stereo not drawn) [DADMe-ImmA-p-ClPh]
Result: 8.10

Request: One more molecule: CSCC1NC(c2c[nH]c3c(N)ncnc23)C(O)C1O (stereo not drawn)
Result: 7.11

Request: One more molecule: CSC[C@H]1CN(Cc2c[nH]c3c(N)ncnc23)C[C@@H]1O [DADMe-ImmA-Me]
Result: 8.85

All values here come from BindingDB's records for doi:10.1021/cb700166z.
